Biological target: hepatitis B virus core antigen (HBcAg) (hepatitis B virus)
Sequence (P03147 whole entry): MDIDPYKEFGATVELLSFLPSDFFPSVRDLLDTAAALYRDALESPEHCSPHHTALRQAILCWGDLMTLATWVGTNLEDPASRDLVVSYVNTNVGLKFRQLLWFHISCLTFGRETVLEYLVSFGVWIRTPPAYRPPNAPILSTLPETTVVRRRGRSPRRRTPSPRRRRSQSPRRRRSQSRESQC
Experiment: phage-binding assay in solution: phage incubated with HBcAg, free phage caught on HBcAg-coated wells and titered
# KD^Rel (relative dissociation constant) listing for each entry below
Record the result as a number with its unit.

ADGALLGRMKRA (peptide, not shown: large carriers) [phage 6] | 181 nM
ADGPRSSLLGRMKGA (peptide, not shown: large carriers) [phage 4A-2] | 0.84 nM
ADGTQRSLLGRMKGA (peptide, not shown: large carriers) [phage 4A-26] | 0.84 nM
ADGSRSSLLGRMKGA (peptide, not shown: large carriers) [phage 4A-1] | 1.96 nM
ADRSLLGRMKGA (peptide, not shown: large carriers) [phage 2A-8] | 1.09 nM

response.value for ADGALLGRMKPA (peptide, not shown: large carriers) [phage 2] (field: KD^Rel (relative dissociation constant)) = 767 nM

Lab note: ADGAHRSLLGRMKGA (peptide, not shown: large carriers) [phage 4A-3] gave KD^Rel (relative dissociation constant) of 0.94 nM
